# method.description: qHTS assay for re-activators of p53 using a Luc reporter: Hit Validation with no p53 Expressed
# experimental.context: p53-null cells, luciferase reporter counter-screen; series mostly up to 46.1 µM
Inconclusive results are not listed. Active and inactive are the calls of the source. Calls follow the shape of the dose curve; as a rule, active = well fitted activation curve with a large enough effect; inconclusive = small, poorly fitted or top-dose-only effect; inactive = no such curve, though single readings can be large or run the other way.
quantity.kind: outcome

Some solved entries appear below for comparison.
                                   compound  quantity_kind  value_observed
0         Cc1cccc(NC(=O)c2cnc3ccccn3c2=O)c1        outcome        inactive
1      Cc1ccc(C)n1-c1cccc(NC(=O)c2ccccc2)c1        outcome        inactive
2  Cc1ccc(S(=O)(=O)NCC(=O)NCC(=O)N2CCC(C)CC2)cc1        outcome        inactive
3  Cc1ccc2c(c1)C(N1CCCC1=O)CC(c1ccco1)N2 (stereo not given)        outcome        inactive
4  CCOc1ccc(N2C(=O)c3ccccc3NC2(C)CC)cc1 (stereo not given)        outcome        inactive
5  COc1ccc(-n2cnc3cc(C(=O)N4CCOCC4)ccc32)cc1        outcome        inactive

Batch of 3 compounds: report outcome for each.
1. CC(C)(C)c1nnc(N/N=C/c2cc(Br)ccc2O)n(N)c1=O
2. COc1cc(C(=O)NCC(=O)Nc2c(C)cccc2C)ccc1OCc1ccccc1
3. COc1ccc(CCC(C)NCC(C)c2ccccc2)cc1 (stereo not given)

Reply text:
inactive
inactive
inactive
